Cited source for all entries: paper PMC10548452

# targetEntity: CCR5 (HOS-CCR5 cells) (Homo sapiens, UniProt P51681)
# Sequence (P51681 whole entry): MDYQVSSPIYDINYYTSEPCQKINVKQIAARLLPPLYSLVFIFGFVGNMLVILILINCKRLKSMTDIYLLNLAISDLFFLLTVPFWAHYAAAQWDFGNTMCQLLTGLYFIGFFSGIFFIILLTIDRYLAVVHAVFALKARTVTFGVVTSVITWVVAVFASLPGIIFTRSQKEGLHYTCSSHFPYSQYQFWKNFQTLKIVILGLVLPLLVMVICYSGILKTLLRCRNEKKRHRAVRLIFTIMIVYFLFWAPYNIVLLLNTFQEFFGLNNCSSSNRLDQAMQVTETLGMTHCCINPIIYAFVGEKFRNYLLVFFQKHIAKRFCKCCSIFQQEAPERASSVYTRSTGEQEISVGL
# runDescription: Calcium mobilization assay in HOS-CCR5 cells
measuredAttribute: IC50 (nM)
Quick reminder: number only, in nM, skip the unit.

Name the recorded IC50 for "CNC(=O)COCC(=O)NCCCCCCCNC(=O)COCC(=O)NCCc1nnc(C(C)C)n1[C@@H]1C[C@H]2CC[C@@H](C1)N2CC[C@H](NC(=O)C1CCC(F)(F)CC1)c1ccccc1" .
116
